I'd be grateful if you could share measured λex (excitation wavelength) for these entries.
# Experiment Summary: Excitation and fluorescence wavelengths by fluorescence spectrometer FL4500
# Format: physicochemical
# Condition Details: aqueous solution: 10 mg/mL DMSO solution diluted to 1/500 with purified water (Examples 1 to 94); in nm (unit assumed)
Numbers only.

Answered cases to consult:
CCOC(=O)CN1C(=O)/C(=C\c2cc(Br)c3c(c2)C2CCCC2N3c2ccc(Br)cc2)SC1=S (stereo not drawn)	482
CC1(C)c2ccccc2-c2ccc(N(c3ccccc3)c3ccc(/C=C4/SC(=S)N(CC(=O)O)C4=O)cc3)cc21	512
CCC(/C=C1\Oc2ccc(-c3ccccc3)cc2N1CC)=C\c1oc2ccc(-c3ccccc3)cc2[n+]1CC.[I-]	459

Fill in λex (excitation wavelength) for each of the 3 molecules listed.
1. CCN1C(=O)/C(=c2\s/c(=C/c3ccc4c(c3)C3CCCC3N4c3ccc(SC)cc3)c(=O)n2CC(=O)O)SC1=S (stereo not drawn)
2. CCN1C(=S)S/C(=c2/s/c(=C/c3cc(Br)c4c(c3)[C@@H]3CCC[C@@H]3N4c3ccc(Br)cc3)c(=O)n2CC(=O)O)C1=S
3. CC[n+]1c(C=c2sc(=Cc3ccc4c(c3)C3CCCC3N4c3ccc(C=C(c4ccccc4)c4ccccc4)cc3)c(=O)n2-c2ccccc2)sc2ccccc21.[Br-] (stereo not drawn)

Reply:
1. 570
2. 559
3. 591

* * *

# Experiment Summary: Excitation and fluorescence wavelengths by fluorescence spectrometer FL4500
# Format: physicochemical
# Condition Details: values in a chloroform solution (Examples 95 to 106); in nm (unit assumed)
Observed Property: λem (fluorescence wavelength)

Example entries begin here.
Nc1c(OCCOC(=O)Oc2ccccc2)cc(O)c2c1C(=O)c1ccccc1C2=O [Compound 114]	568
Cc1cccc(C)c1Nc1ccc2c3c(cc(=O)n2C)-c2ccccc2C(=O)c13 [Compound 122]	582
Nc1c(OCCCOc2ccccc2)cc(O)c2c1C(=O)c1ccccc1C2=O [Compound 112]	568
COC(=O)CCc1ccc(Oc2cc(O)c3c(c2N)C(=O)c2ccccc2C3=O)c(C)c1 [Compound 113]	575
Nc1c(Br)cc(O)c2c1C(=O)c1ccccc1C2=O [Compound 111]	589

Quick request: λem (fluorescence wavelength) for each listed item, please.
1. Cc1ccc(Nc2ccc3c4c(cc(=O)n3C)-c3ccccc3C(=O)c24)c(C)c1 [Compound 120]
2. COc1ccc(Nc2ccc3c4c(cc(=O)n3C)-c3ccccc3C(=O)c24)cc1 [Compound 116]
3. CCOc1ccc(Nc2ccc3c4c(cc(=O)n3C)-c3ccccc3C(=O)c24)cc1 [Compound 117]
4. Cc1ccc(C)c(Nc2ccc3c4c(cc(=O)n3C)-c3ccccc3C(=O)c24)c1 [Compound 121]
5. Cc1cccc(Nc2ccc3c4c(cc(=O)n3C)-c3ccccc3C(=O)c24)c1 [Compound 115]
6. Cn1c(=O)cc2c3c(c(Nc4ccccc4)ccc31)C(=O)c1ccccc1-2 [Compound 110]

Reply:
1. 609
2. 584
3. 581
4. 609
5. 614
6. 614

Query: I have this compound here, CCCCc1ccc(Nc2ccc3c4c(cc(=O)n3C)-c3ccccc3C(=O)c24)cc1 [Compound 118] , and I need its recorded λem (fluorescence wavelength).
Reply: 634

* * *

Please respond with reported λem (fluorescence wavelength) for every item in the list.
# Experiment Summary: Excitation and fluorescence wavelengths by fluorescence spectrometer FL4500
# Format: physicochemical
# Condition Details: aqueous solution: 10 mg/mL DMSO solution diluted to 1/500 with purified water (Examples 1 to 94); in nm (unit assumed)
One number for each entry.

Illustrative cases are given below, each with its answer.
CCN1C(=O)/C(=c2\s/c(=C/c3cc(Br)c4c(c3)C3CCCC3N4Cc3ccccc3)c(=O)n2CC(=O)O)SC1=S (stereo not shown)	649
C=CCN1C(=O)S/C(=c2/s/c(=C/c3ccc4c(c3)C3CCCC3N4c3ccccc3)c(=O)n2CC(=O)OCC)C1=O (stereo not shown)	638
CCN(CC)c1ccc2cc3c(oc2c1)c(C#N)c(=O)n1c2ccccc2nc31	576
CC[n+]1c(C=c2sc(=Cc3ccc4c(c3)C3CCCC3N4c3ccc(C=C(c4ccccc4)c4ccccc4)cc3)c(=O)n2-c2ccccc2)sc2ccccc21.[Br-] (stereo not shown)	721
O=C(O)CCN1C(=O)/C(=C\c2ccc3c(c2)C2CCCC2N3Cc2ccccc2)SC1=S (stereo not shown)	611

Your task in this section: give λem (fluorescence wavelength) for each listed record.
1. O=C1/C(=C/c2ccc3c(c2)C2CCCC2N3c2ccccc2)Oc2ccc(I)cc21 (stereo not shown)
2. C[n+]1c(C=c2sc(=Cc3ccc4c(c3)C3CCCC3N4c3ccc(C=C(c4ccccc4)c4ccccc4)cc3)c(=O)n2CC(=O)O)sc2ccccc21.[Br-] (stereo not shown)
3. O=C(O)CN1/C(=C/C2=C(Cl)C(=C/c3sc4ccccc4[n+]3CC(=O)O)/CCC2)Sc2ccccc21.[Br-]
4. CCCCN1C(=O)/C(=c2\s/c(=C/c3ccc4c(c3)C3CCCC3N4c3ccccc3)c(=O)n2CC(=O)OCC)SC1=S (stereo not shown)
5. Cn1c(=O)cc2c3c(c(NC4CCCCC4)ccc31)C(=O)c1ccccc1-2
6. O=C(O)C[n+]1c(/C=C/c2ccc3c(c2)C2CCCC2N3c2ccc(C=C(c3ccccc3)c3ccccc3)cc2)sc2ccccc21.[Br-] (stereo not shown)

Reply:
490
760
671
609
619
675

Record λem (fluorescence wavelength) per entry; entries follow.
1. Cc1cc(C)cc(Nc2ccc3c4c(cc(=O)n3C)-c3ccccc3C(=O)c24)c1
2. CCCCCC(CC)Nc1ccc2c3c(cc(=O)n2C)-c2ccccc2C(=O)c13 (stereo not shown)
3. O=C(O)CN1C(=O)/C(=C\c2cc(Br)c3c(c2)[C@@H]2CCC[C@@H]2N3c2ccc(Br)cc2)SC1=S
4. CCC(/C=C1\Sc2c(ccc3ccccc23)N1CC)=C\c1sc2c3ccccc3ccc2[n+]1CC.[I-]
5. O=C(O)CCN1/C(=C/C2=C(Cl)C(=C/c3sc4ccccc4[n+]3CCC(=O)O)/CCC2)Sc2ccccc21.[I-]
6. CCN1C(=S)S/C(=c2/s/c(=C/c3ccc4c(c3)C3CCCC3N4c3ccc(C=C(c4ccccc4)c4ccccc4)cc3)c(=O)n2CC(=O)O)C1=S (stereo not shown)

Reply:
630
553
609
377
664
702

// input: 5 compounds below; output: λem (fluorescence wavelength) for each
1. CCCCCCCCN1C(=O)S/C(=c2/s/c(=C/c3ccc4c(c3)C3CCCC3N4c3ccccc3)c(=O)n2CC(=O)OCC)C1=O (stereo not shown)
2. CC1(C)c2ccccc2-c2ccc(N(c3ccccc3)c3ccc(/C=C4/SC(=S)N(CC(=O)O)C4=O)cc3)cc21
3. O=C(O)CCN1C(=O)/C(=C\c2ccc3c(c2)C2CCCC2N3c2ccccc2)SC1=S (stereo not shown)
4. O=C(O)CN1C(=O)/C(=C\c2cc(Br)c3c(c2)C2CCCC2N3Cc2ccccc2)SC1=S (stereo not shown)
5. O=C1C=Cc2cc(S(=O)(=O)O)cc(S(=O)(=O)O)c2/C1=N/Nc1ccc(S(=O)(=O)O)c2ccccc12

Reply:
[625, 628, 619, 606, 560]
